test target: Carboxylic ester hydrolase (Equus caballus, UniProt Q9N1N9)
Sequence (Q9N1N9 whole entry): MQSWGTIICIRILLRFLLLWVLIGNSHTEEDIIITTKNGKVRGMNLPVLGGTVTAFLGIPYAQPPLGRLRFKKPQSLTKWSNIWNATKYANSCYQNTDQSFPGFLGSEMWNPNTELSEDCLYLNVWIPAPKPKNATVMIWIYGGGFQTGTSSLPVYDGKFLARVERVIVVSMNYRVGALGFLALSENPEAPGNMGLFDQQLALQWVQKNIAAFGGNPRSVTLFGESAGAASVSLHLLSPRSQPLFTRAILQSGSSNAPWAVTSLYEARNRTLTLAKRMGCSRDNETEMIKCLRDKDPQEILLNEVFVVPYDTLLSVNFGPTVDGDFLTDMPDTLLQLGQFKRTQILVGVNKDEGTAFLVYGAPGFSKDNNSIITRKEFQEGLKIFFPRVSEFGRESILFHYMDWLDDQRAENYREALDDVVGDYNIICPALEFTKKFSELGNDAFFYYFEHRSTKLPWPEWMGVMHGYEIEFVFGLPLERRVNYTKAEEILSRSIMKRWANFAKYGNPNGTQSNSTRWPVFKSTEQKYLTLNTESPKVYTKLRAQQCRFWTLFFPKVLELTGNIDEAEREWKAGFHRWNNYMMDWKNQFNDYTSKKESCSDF
protocol text: Cholinesterase Inhibition Assay
// classify: if (IC50 < 100 µM) True else False

Consider the compound CC(=O)NC(Cc1ccc(F)cc1)C(=O)Nc1ccc(Cl)cc1 (stereo unspecified) . Is its IC50 strictly less than 100 µM?
False

Also need CC(=O)NC(Cc1ccccc1F)C(=O)Nc1ccc(Cl)cc1 (stereo unspecified) , thanks.
False

Then what about the compound CC(=O)NC(Cc1cccc(F)c1)C(=O)Oc1ccc(C(F)(F)F)cc1 (stereo unspecified) ?
True

Ok, now CC(=O)NC(Cc1ccccc1F)C(=O)Oc1ccc([N+](=O)[O-])cc1 (stereo unspecified)
True

Consider next the compound CC(=O)NC(Cc1cccc(F)c1)C(=O)Nc1ccc(C(F)(F)F)cc1 (stereo unspecified) in the same way.
False

What would you report for CC(=O)NC(Cc1cccc(F)c1)C(=O)Oc1ccccc1 (stereo unspecified) ?
True

Repeat with CC(=O)NC(Cc1ccc(F)cc1)C(=O)Oc1ccc(C)cc1 (stereo unspecified)
True

Next: CC(=O)NC(Cc1ccccc1F)C(=O)Nc1ccc(C(F)(F)F)cc1 (stereo unspecified)
False

Moving on to the next compound: CC(=O)NC(Cc1ccc(F)cc1)C(=O)Nc1ccccc1 (stereo unspecified)
True

Would you mind doing CC(=O)NC(Cc1cccc(F)c1)C(=O)Nc1ccc(C)cc1 (stereo unspecified) as well?
False

Same read-out for CC(=O)NC(Cc1ccc(F)cc1)C(=O)Nc1ccc(C)cc1 (stereo unspecified) ?
False

====

test target: UniProtKB Q9N1N9
protocol text: Cholinesterase Inhibition Assay
readout: pIC50
The scale used: pIC50 is minus the common logarithm of the concentration in molar units.

Item under review: CC(=O)NC(Cc1cccc(F)c1)C(=O)O (stereo not drawn) . Reported pIC50?
3.68

Next: CC(=O)NC(Cc1ccccc1F)C(=O)Oc1ccc(Cl)cc1 (stereo not drawn)
4.09

How about CC(=O)NC(Cc1ccc(F)cc1)C(=O)Oc1ccc(Cl)cc1 (stereo not drawn) ?
4.23

====

Here's what we have: IC50 numbers for Acetylcholinesterase (Electrophorus electricus, UniProt O42275).
I only need the number, in µM, no unit after it.

I'd like to know its IC50. The molecule in question is CC(=O)NC(Cc1ccccc1F)C(=O)Nc1ccc(Cl)cc1 (stereo unspecified)
76.5

Try CC(=O)NC(Cc1cccc(F)c1)C(=O)Nc1ccc([N+](=O)[O-])cc1 (stereo unspecified) next.
70.6

And then CC(=O)NC(Cc1cccc(F)c1)C(=O)Oc1ccc(C(F)(F)F)cc1 (stereo unspecified) , what is it?
62.2

And then CC(=O)NC(Cc1cccc(F)c1)C(=O)Nc1ccc(C(F)(F)F)cc1 (stereo unspecified) , what is it?
79.4

Check CC(=O)NC(Cc1cccc(F)c1)C(=O)O (stereo unspecified) too.
63.6

Next molecule: CC(=O)NC(Cc1cccc(F)c1)C(=O)Nc1ccc(Cl)cc1 (stereo unspecified)
70.7

Entry CC(=O)NC(Cc1ccc(F)cc1)C(=O)O (stereo unspecified) please
63.7

Would you kindly repeat that for CC(=O)NC(Cc1ccccc1F)C(=O)Oc1ccc(C)cc1 (stereo unspecified) ?
57.9

Next molecule up: CC(=O)NC(Cc1ccccc1F)C(=O)Nc1ccc(C(F)(F)F)cc1 (stereo unspecified)
73.4

Next record, please: CC(=O)NC(Cc1cccc(F)c1)C(=O)Oc1ccc([N+](=O)[O-])cc1 (stereo unspecified)
74.3

CC(=O)NC(Cc1ccc(F)cc1)C(=O)Nc1ccc(C(F)(F)F)cc1 (stereo unspecified) , same question.
84.1
